biological target: MAP kinase-interacting serine/threonine-protein kinase 1 (Homo sapiens, UniProt Q9BUB5)
Sequence (Q9BUB5 whole entry): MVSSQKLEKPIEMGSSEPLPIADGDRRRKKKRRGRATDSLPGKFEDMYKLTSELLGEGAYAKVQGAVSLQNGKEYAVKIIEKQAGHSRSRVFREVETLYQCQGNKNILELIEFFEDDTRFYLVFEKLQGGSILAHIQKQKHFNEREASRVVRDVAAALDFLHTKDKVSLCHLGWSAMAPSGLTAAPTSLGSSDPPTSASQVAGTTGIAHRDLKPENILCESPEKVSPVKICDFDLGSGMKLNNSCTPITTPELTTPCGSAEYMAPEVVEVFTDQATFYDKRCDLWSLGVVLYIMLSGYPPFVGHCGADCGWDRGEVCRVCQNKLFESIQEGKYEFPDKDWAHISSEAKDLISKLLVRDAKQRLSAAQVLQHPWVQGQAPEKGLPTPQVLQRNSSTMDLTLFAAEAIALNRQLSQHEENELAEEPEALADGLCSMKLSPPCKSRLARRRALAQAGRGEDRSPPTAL
pIC50: −log10 of the molar value.
EXPERIMENTAL_ENDPOINT: pIC50

INSERT INTO assay_data (chemical_smiles, experimental_endpoint, value) VALUES
  ('Oc1ccc(-c2cnc3cnc(-c4ccccc4)cn23)cc1', 'pIC50', 6.28),
  ('CN1CCN(C(=O)c2ccc(-c3cn4c(-c5ccccc5O)cnc4cn3)cc2)CC1', 'pIC50', 5.02),
  ('N#Cc1ccc(-c2cnc3ccc(-c4ccc(C(=O)N5CCNCC5)cc4)nn23)cc1', 'pIC50', 7.80),
  ('NC(=O)c1ccc(-c2cn3c(-c4ccc(O)cc4)cnc3cn2)cc1', 'pIC50', 6.51),
  ('O=C(c1ccc(-c2cn3c(-c4ccc(O)cc4)cnc3cn2)cc1)N1CCOCC1', 'pIC50', 6.90),
  ('CN(C)C1CCN(C(=O)c2ccc(-c3ccc4ncc(-c5ccc(C#N)cc5)n4n3)cc2)CC1', 'pIC50', 8.05),
  ('CN1CCN(C(=O)c2ccc(-c3cn4c(-c5ccc(Cl)cc5)cnc4cn3)cc2)CC1', 'pIC50', 6.48),
  ('CN1CCN(C(=O)c2ccc(-c3cn4c(-c5cccc(O)c5)cnc4cn3)cc2)CC1', 'pIC50', 5.89);
